- assay.system: Histamine H2 receptor (Homo sapiens, UniProt P25021)
- Sequence (P25021 whole entry): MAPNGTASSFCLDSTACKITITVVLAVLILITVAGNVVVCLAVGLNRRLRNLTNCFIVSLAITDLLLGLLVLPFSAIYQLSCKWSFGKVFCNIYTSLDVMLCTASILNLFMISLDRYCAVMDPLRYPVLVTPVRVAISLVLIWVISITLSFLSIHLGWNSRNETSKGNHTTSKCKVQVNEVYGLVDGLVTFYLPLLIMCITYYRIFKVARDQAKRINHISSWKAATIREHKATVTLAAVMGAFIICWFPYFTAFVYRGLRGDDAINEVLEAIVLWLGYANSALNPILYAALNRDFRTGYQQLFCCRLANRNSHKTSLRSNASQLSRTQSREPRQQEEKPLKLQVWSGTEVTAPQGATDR
- experimental.details: Agonist activity at human histamine H2 receptor expressed in HEK293T cells co-expressing ELucC assessed as intrinsic activity at >= 30 uM by beta arrestin2 recruitment assay relative to histamine
- Format: functional, cell-based
- experimental.conditions: filed as agonist, dose microM >=30
observed.property: Intrinsic activity

{"compound": "Cc1nc(N)sc1CCCN/C(N)=N/C(=O)NCC(C)C1CCCCC1 (centres undefined)", "observed.property": "Intrinsic activity", "test.value": 0.4}
{"compound": "Cc1nc(N)sc1CCCN/C(N)=N/C(=O)NCC(C)c1ccc(C(C)C)cc1 (centres undefined)", "observed.property": "Intrinsic activity", "test.value": 0.25}
{"compound": "Cc1nc(N)sc1CCCN/C(N)=N/C(=O)NCC(C)CCc1ccccc1 (centres undefined)", "observed.property": "Intrinsic activity", "test.value": 0.2}
{"compound": "Cc1nc(N)sc1CCCN/C(N)=N/C(=O)NCC(c1ccccc1)C(C)C (centres undefined)", "observed.property": "Intrinsic activity", "test.value": 0.11}

###

- experimental.details: Dissociation constant, pKa2 of compound in HCL or HCL salt
- Format: physicochemical
- experimental.conditions: HCl or HCl salt solution

{"chemical.structure": "Cc1nc(N)sc1CCCN/C(N)=N/C(=O)N[C@H](C)c1ccccc1", "pKa": 7.47}

###

- assay.system: Histamine H2 receptor (Homo sapiens, UniProt P25021)
A collection of compounds and their measured Ki

{"compound": "Cc1ccc(CC(C)CNC(=O)/N=C(\\N)NCCCc2sc(N)nc2C)cc1 (configuration not stated)", "Ki (nM)": 72.4}
{"compound": "N/C(=N\\C(=O)NC1CCCCC1)Nc1cccc(-c2csc(N)n2)c1", "Ki (nM)": 4470}
{"compound": "CCCCCCNC(=O)/N=C(\\N)NC1CCc2nc(N)sc2C1 (configuration not stated)", "Ki (nM)": 1120}
{"compound": "Cc1nc(N)sc1CCCN/C(N)=N/C(=S)N[C@H](C)c1ccccc1", "Ki (nM)": 115}
{"compound": "Cc1nc(N)sc1CCCN/C(N)=N/C(=O)NCc1ccco1", "Ki (nM)": 10.5}
{"compound": "Cc1nc(N)sc1CCCN/C(N)=N/C(=O)NC(C)c1ccc(Cl)cc1 (configuration not stated)", "Ki (nM)": 46.8}
{"compound": "Cc1nc(N)sc1CCCN/C(N)=N/C(=O)NC(C)c1cccs1 (configuration not stated)", "Ki (nM)": 63.1}
{"compound": "Cc1nc(N)sc1CCCN/C(N)=N/C(=O)NC1CCCCC1", "Ki (nM)": 170}
{"compound": "Cc1nc(N)sc1CCCN/C(N)=N/C(=S)NC[C@H](C)c1ccccc1", "Ki (nM)": 1150}
{"compound": "CCCN[C@@H]1CCc2nc(N)sc2C1 [DEXPRAMIPEXOLE]", "Ki (nM)": 13800}
{"compound": "N/C(=N\\C(=O)NCc1ccccc1)NC1CCc2nc(N)sc2C1 (configuration not stated)", "Ki (nM)": 513}
{"compound": "Cc1nc(N)sc1CCCN/C(N)=N/C(=S)NC[C@@H](C)c1ccccc1", "Ki (nM)": 427}

###

Listing: Intrinsic activity of selected molecules
- assay.system: Histamine H2 receptor (Homo sapiens)
- experimental.details: Agonist activity at human histamine H2 receptor expressed in sf9 insect cell membranes co-exprssing GsalphaS assessed as intrinsic activity at >=30 uM incubated for 90 mins [35S]GTPgammaS binding based microbeta scintillation counting analysis relative to histamine
- Format: functional
- experimental.conditions: Membrane, filed as agonist, dose microM >=30, time 90.0 min
observed.property: Intrinsic activity

{"molecule": "Cc1nc(N)sc1CCCN/C(N)=N/C(=O)Nc1ccccc1", "test.value": 0.59}
{"molecule": "N/C(=N\\C(=O)NCc1ccccc1)NC1CCc2nc(N)sc2C1 (stereo unspecified)", "test.value": 0.53}
{"molecule": "CCCNC(=O)/N=C(\\N)NCCCc1sc(N)nc1C", "test.value": 0.79}
{"molecule": "Cc1nc(N)sc1CCCN/C(N)=N/C(=O)NCC(C)C1CCCCC1 (stereo unspecified)", "test.value": 0.65}
{"molecule": "Cc1nc(N)sc1CCCN/C(N)=N/C(=O)NCC(C)c1ccc(C(C)C)cc1 (stereo unspecified)", "test.value": 0.59}
{"molecule": "Cc1nc(N)sc1CCCN/C(N)=N/C(=O)NCC(C)CCc1ccccc1 (stereo unspecified)", "test.value": 0.69}
